pIC50: −log10 of the molar value.
Consider the following pIC50 data for HPK1 (Homo sapiens (Human)), collected from several reports.

Worked examples, 5 compounds total:
compound=CN1CC(Oc2nc(Nc3ccc(-c4cnc5cc(F)ccn45)c4c3C(=O)NC4)ccc2[C@@H]2CCOC2)C1 recordedendpoint=pIC50 result="> 7.00"
compound=CN1CC(c2ccn3c(-c4ccc(Nc5ccc(N6CCC(O)CC6)cn5)c5c4CNC5=O)cnc3c2)C1 recordedendpoint=pIC50 result="> 7.00"
compound=C[C@@H]1NC(=O)c2c(Nc3ccc(N4CCC(O)CC4)cn3)ccc(-c3cnc4ccccn34)c21 recordedendpoint=pIC50 result="< 6.00"
compound=CC(C)(O)c1ccc(-c2cc(Nc3ccc(N4CCC(O)CC4)cn3)c3c(=O)[nH]ccc3n2)c(F)c1 recordedendpoint=pIC50 result="6.00 to 7.00"
compound=CN(C)Cc1nc(Nc2ccc(-c3cnc4cc(F)ccn34)c3c2C(=O)NC3)ccc1N1CCO[C@H](C(C)(C)O)C1 recordedendpoint=pIC50 result="> 7.00"

*Q* Identify measured pIC50 corresponding to CC(C)n1cc2c(N3CC[C@@H](N)C3)c(NC(=O)c3ccc(=O)n(-c4c(F)cccc4F)n3)cc(F)c2n1
*A* > 7.00

*Q* Identify measured pIC50 corresponding to COc1cc2c(cc1Nc1ncc3ccc(-c4cncc(N5CCNCC5)c4)cc3n1)CNCC2
*A* 8.23

*Q* Identify measured pIC50 corresponding to CN(C)Cc1nc(Nc2ccc(-c3cnc4cc(F)ccn34)c3c2C(=O)NC3)ccc1N1CCOCC12CC2
*A* > 7.00
